- EXPERIMENT: physchem
- CONDITION: water, thermodynamic from solid
ASSAY METRIC: solubility kinetic at 1 h (µg/mL)

* CCS(=O)(=O)N1CC(CC#N)(n2cc(-c3ncnc4[nH]ccc34)cn2)C1 [Form G, Baricitinib] | 52

---

- EXPERIMENT: physchem
- CONDITION: fassif, thermodynamic from solid
ASSAY METRIC: solubility kinetic at 1 h

• CCS(=O)(=O)N1CC(CC#N)(n2cc(-c3ncnc4[nH]ccc34)cn2)C1 [Form G, Baricitinib] = 81 µg/mL

---

- EXPERIMENT: Kinetic solubility in biorelevant media and water (HPLC)
- CONDITION: FeSSIF (fed state simulated intestinal fluid), fessif, thermodynamic from solid
ASSAY METRIC: solubility kinetic at 4 h (µg/mL)

• CCS(=O)(=O)N1CC(CC#N)(n2cc(-c3ncnc4[nH]ccc34)cn2)C1 [Crystalline form of the prior art, Baricitinib, reference compound] = 31

---

- EXPERIMENT: Kinetic solubility in biorelevant media and water (HPLC)
- CONDITION: FeSSIF (fed state simulated intestinal fluid), fessif, thermodynamic from solid
ASSAY METRIC: solubility kinetic at 1 h (µg/mL)

• CCS(=O)(=O)N1CC(CC#N)(n2cc(-c3ncnc4[nH]ccc34)cn2)C1 [Crystalline form of the prior art, Baricitinib, reference compound] = 35

---

- EXPERIMENT: physchem
- CONDITION: fessif, thermodynamic from solid
ASSAY METRIC: solubility kinetic at 1 h

• CCS(=O)(=O)N1CC(CC#N)(n2cc(-c3ncnc4[nH]ccc34)cn2)C1 [Form G, Baricitinib] = 130 µg/mL

---

- EXPERIMENT: Kinetic solubility in biorelevant media and water (HPLC)
- CONDITION: SGF (simulated gastric fluid), simulated gastric fluid, thermodynamic from solid
ASSAY METRIC: solubility kinetic at 4 h (µg/mL)

* CCS(=O)(=O)N1CC(CC#N)(n2cc(-c3ncnc4[nH]ccc34)cn2)C1 [Crystalline form of the prior art, Baricitinib, reference compound] | 1900

---

- EXPERIMENT: Kinetic solubility in biorelevant media and water (HPLC)
- CONDITION: SGF (simulated gastric fluid), simulated gastric fluid, thermodynamic from solid
ASSAY METRIC: solubility kinetic at 24 h (µg/mL)

* CCS(=O)(=O)N1CC(CC#N)(n2cc(-c3ncnc4[nH]ccc34)cn2)C1 [Crystalline form of the prior art, Baricitinib, reference compound] | 1900

---

- EXPERIMENT: physchem
- CONDITION: simulated gastric fluid, thermodynamic from solid
ASSAY METRIC: solubility kinetic at 4 h (µg/mL)

• CCS(=O)(=O)N1CC(CC#N)(n2cc(-c3ncnc4[nH]ccc34)cn2)C1 [Form G, Baricitinib] = 2700

---

- EXPERIMENT: physchem
- CONDITION: water, thermodynamic from solid
ASSAY METRIC: solubility kinetic at 4 h (µg/mL)

- CCS(=O)(=O)N1CC(CC#N)(n2cc(-c3ncnc4[nH]ccc34)cn2)C1 [Form G, Baricitinib]: 66

---

- EXPERIMENT: Kinetic solubility in biorelevant media and water (HPLC)
- CONDITION: water, thermodynamic from solid
ASSAY METRIC: solubility kinetic at 1 h (µg/mL)

* CCS(=O)(=O)N1CC(CC#N)(n2cc(-c3ncnc4[nH]ccc34)cn2)C1 [Crystalline form of the prior art, Baricitinib, reference compound] | 8.9

---

- EXPERIMENT: physchem
- CONDITION: fassif, thermodynamic from solid
ASSAY METRIC: solubility kinetic at 4 h (µg/mL)

• CCS(=O)(=O)N1CC(CC#N)(n2cc(-c3ncnc4[nH]ccc34)cn2)C1 [Form G, Baricitinib] = 100

---

- EXPERIMENT: Kinetic solubility in biorelevant media and water (HPLC)
- CONDITION: water, thermodynamic from solid
ASSAY METRIC: solubility kinetic at 4 h (µg/mL)

- CCS(=O)(=O)N1CC(CC#N)(n2cc(-c3ncnc4[nH]ccc34)cn2)C1 [Crystalline form of the prior art, Baricitinib, reference compound]: 12

---

- EXPERIMENT: Kinetic solubility in biorelevant media and water (HPLC)
- CONDITION: SGF (simulated gastric fluid), simulated gastric fluid, thermodynamic from solid
ASSAY METRIC: solubility kinetic at 1 h (µg/mL)

- CCS(=O)(=O)N1CC(CC#N)(n2cc(-c3ncnc4[nH]ccc34)cn2)C1 [Crystalline form of the prior art, Baricitinib, reference compound]: 1900

---

- EXPERIMENT: physchem
- CONDITION: fessif, thermodynamic from solid
ASSAY METRIC: solubility kinetic at 4 h (µg/mL)

* CCS(=O)(=O)N1CC(CC#N)(n2cc(-c3ncnc4[nH]ccc34)cn2)C1 [Form G, Baricitinib] | 170

---

- EXPERIMENT: Kinetic solubility in biorelevant media and water (HPLC)
- CONDITION: FeSSIF (fed state simulated intestinal fluid), fessif, thermodynamic from solid
ASSAY METRIC: solubility kinetic at 24 h (mg/mL)

• CCS(=O)(=O)N1CC(CC#N)(n2cc(-c3ncnc4[nH]ccc34)cn2)C1 [Crystalline form of the prior art, Baricitinib, reference compound] = 0.033

---

- EXPERIMENT: Kinetic solubility in biorelevant media and water (HPLC)
- CONDITION: FaSSIF (fasted state simulated intestinal fluid), fassif, thermodynamic from solid
ASSAY METRIC: solubility kinetic at 4 h (µg/mL)

• CCS(=O)(=O)N1CC(CC#N)(n2cc(-c3ncnc4[nH]ccc34)cn2)C1 [Crystalline form of the prior art, Baricitinib, reference compound] = 18
